test system: K4 kissing-loop RNA reporter; experiment: apparent KD of K4 kissing-loop reporter; higher = weaker reporter binding; conditions: Eterna round: R107; input ligand: theophylline 20 uM;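 note: bound reporter read as fluorescence of individual clusters on recovered sequencing chips by microscopy, with normalized cluster intensities fitted with a binding model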

chain sequence: UGACAUUGCUCAGAUACCAGACAUGAGCAUCAGCCAUGUACCAAGAAAACGUACAUAAAUGUCCCUUGGCAGCUGAGCAAUGUCU [TheoBX 10]
apparent KD of K4 kissing-loop reporter [nM]: 89

chain sequence: AGGAUCCGUCGACAAAAGUCGACAUAAUCCAAGGAUAUGACGAAAGUCAGAAGGUGGACAUAAGUCCAGUGAUGUUGGAGGAUCC [FmnA 16 #SwitchBubble #K4Late]
apparent KD of K4 kissing-loop reporter [nM]: 557

chain sequence: UGUAUGUGAUUUGAUACCAGACCAGCUGGUGGAUCACGAGUGAUGUUCGUGUUGGUUUGGGUCCCUUGGCAGCAAAUCGCAUACU [KL-SSTheoB13]
apparent KD of K4 kissing-loop reporter [nM]: 131

chain sequence: GACCCAGAAGCACACCUAAAGUUGACAGAUACCAGCGUCGUUUGGCGCCCUUGGCAGCUGGUCAGUGAUGUUGAUAGCUUCGACU [theeternabot_sameState_KL_Theo_A_24]
apparent KD of K4 kissing-loop reporter [nM]: 89.5

chain sequence: GCAGUGAUGUUGCGGAUGUACAGUGGCGUGCGAGGACCGGUACGGCCGCCACUCGUACAGAACAAGCUAAUACAUCGAUAGGUGA [whbob_SS_Tryp_A_m1]
apparent KD of K4 kissing-loop reporter [nM]: 516

chain sequence: UGUGAUGUGUAGUGUGAUGUUUUGAAGGAUACCAGAGUGUUGUUAUUCCCUUGGCAGCUUGAGUGAUGUUUGAUGUUGUUGUUGU [aawemullin]
apparent KD of K4 kissing-loop reporter [nM]: 229
